- System: human prostate cancer cell line LNCaP
- assay-method-text: Cytostatic activity in vitro, prostate cancer LNCaP
- Assay type: cell-based
- condition-summary: 72 h continuous exposure
measured-attribute: log10(IC50) (log10 of the value in µM)
Form field - Quantity: IC50; Unit: µM; Scale: log10

CN(C)CCn1nc2c3c(c(NCCCN)ccc3c1=O)C(=O)c1ccccc1-2 yielded log10(IC50) of -1.50

CCCCNCCNc1ccc2c(=O)[nH]nc3c2c1C(=O)c1ccccc1-3 yielded log10(IC50) of -0.37

Given item CNCCNc1ccc2c(=O)n(CCN(C)C)nc3c2c1C(=O)c1ccccc1-3 , the value recorded as its log10(IC50) is -2.59

log10(IC50) reported for this compound CCNCCNc1ccc2c(=O)n(CCN(C)C)nc3c2c1C(=O)c1ccccc1-3 : -1.96

Record CN(C)CCNc1ccc2c(=O)n(CCO)nc3c2c1C(=O)c1ccccc1-3 . Reported log10(IC50): -0.69
